Target: SMARCA2 (Homo sapiens)
Sequence (P51531 whole entry): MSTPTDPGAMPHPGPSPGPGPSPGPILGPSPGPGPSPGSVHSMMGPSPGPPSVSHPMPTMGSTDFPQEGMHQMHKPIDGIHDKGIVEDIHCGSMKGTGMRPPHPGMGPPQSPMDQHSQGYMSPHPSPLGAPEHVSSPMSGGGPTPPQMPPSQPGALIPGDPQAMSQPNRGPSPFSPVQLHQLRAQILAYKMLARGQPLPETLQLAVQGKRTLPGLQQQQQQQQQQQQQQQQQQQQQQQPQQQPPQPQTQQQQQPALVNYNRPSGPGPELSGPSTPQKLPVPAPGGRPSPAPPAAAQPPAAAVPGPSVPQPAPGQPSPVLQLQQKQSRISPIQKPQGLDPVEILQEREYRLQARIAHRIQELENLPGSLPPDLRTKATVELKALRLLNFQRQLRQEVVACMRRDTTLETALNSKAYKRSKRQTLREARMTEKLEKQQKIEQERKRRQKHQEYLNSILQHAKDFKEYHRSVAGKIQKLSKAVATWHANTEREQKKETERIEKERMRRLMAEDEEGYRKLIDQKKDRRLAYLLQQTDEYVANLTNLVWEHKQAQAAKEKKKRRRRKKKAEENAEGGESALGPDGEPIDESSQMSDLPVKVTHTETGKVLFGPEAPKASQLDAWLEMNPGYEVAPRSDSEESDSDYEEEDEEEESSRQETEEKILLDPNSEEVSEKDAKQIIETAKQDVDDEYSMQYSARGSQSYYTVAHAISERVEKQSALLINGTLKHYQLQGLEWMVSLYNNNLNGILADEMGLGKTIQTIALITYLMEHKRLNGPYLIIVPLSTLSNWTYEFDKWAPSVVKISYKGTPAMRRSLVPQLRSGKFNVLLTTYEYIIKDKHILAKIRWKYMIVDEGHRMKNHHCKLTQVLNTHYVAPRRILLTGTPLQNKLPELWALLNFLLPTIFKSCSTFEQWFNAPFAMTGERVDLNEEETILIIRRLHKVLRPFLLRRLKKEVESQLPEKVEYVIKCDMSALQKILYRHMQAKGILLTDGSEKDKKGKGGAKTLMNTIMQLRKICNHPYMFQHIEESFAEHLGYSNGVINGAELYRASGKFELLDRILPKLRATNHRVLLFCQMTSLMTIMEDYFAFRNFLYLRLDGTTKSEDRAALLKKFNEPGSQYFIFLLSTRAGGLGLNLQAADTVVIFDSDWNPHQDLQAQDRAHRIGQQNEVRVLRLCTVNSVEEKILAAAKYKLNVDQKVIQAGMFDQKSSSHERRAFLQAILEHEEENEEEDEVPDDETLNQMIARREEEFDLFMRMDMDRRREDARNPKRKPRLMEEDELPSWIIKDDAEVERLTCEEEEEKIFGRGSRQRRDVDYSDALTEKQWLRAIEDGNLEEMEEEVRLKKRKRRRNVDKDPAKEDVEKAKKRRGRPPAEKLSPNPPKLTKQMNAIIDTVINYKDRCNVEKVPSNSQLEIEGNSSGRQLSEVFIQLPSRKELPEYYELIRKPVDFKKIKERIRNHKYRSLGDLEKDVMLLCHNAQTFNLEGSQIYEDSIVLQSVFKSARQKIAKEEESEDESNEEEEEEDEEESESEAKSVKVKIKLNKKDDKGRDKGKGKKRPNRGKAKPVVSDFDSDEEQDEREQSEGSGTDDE
Assay: HiBiT assay for protein degradation, Hela SMARCA2-HiBiT cells (A series)
Assay type: cell-based
Parameters: Hela cells were genetically modified via CRISPR/Cas9 to fuse HiBiT to the carboxy terminus of SMARCA2; host or cells: HeLa (CRISPR/Cas9 HiBiT knock-in)
Conditions: Hela SMARCA2-HiBiT cells, 24 hours treatment; read-out: SMARC A2 Hela HiBit DC50
Protocol: Hela cells were genetically modified via CRISPR/Cas9 to fuse HiBiT to the carboxy terminus of SMARCA2 (Promega CS302365) or SMARCA4 (Promega CS3023225). Cells were cultured in DMEM containing 10% FBS and 1% (Vol:Vol) penicillin-streptomycin. […] At the end of experiment, levels of SMARCA2 or SMARCA4 expression were assessed with Nano-Glo® HiBiT Lytic Detection Assay (Promega N3050). IC50 was obtained using the GraphPad Prism data analysis software.
A collection of molecules and their measured DC50
Property: DC50

| Structure notation | Property | Result |
| --- | --- | --- |
| Cc1ncsc1-c1ccc([C@H](COCC(=O)O)NC(=O)[C@@H]2C[C@@H](O)CN2C(=O)[C@@H](n2cc([C@H]3CC[C@H](CN4CCC(c5ccc6c(c5)-n5c(nc(=O)c7c(Cl)cccc75)C65CCCCC5)CC4)CC3)nn2)C(C)(C)C)cc1 | DC50 | 0.1 to 1 µM |
| COC(=O)C1CCN(C[C@H](NC(=O)[C@@H]2C[C@@H](O)CN2C(=O)[C@@H](n2cc([C@H]3CC[C@H](CN4CCC(c5ccc6c(c5)-n5c(nc(=O)c7c(Cl)cccc75)C65CCCCC5)CC4)CC3)nn2)C(C)(C)C)c2ccc(-c3scnc3C)cc2)CC1 | DC50 | < 0.01 µM |

----------
Biological target: UniProtKB P51532
Sequence (P51532 whole entry): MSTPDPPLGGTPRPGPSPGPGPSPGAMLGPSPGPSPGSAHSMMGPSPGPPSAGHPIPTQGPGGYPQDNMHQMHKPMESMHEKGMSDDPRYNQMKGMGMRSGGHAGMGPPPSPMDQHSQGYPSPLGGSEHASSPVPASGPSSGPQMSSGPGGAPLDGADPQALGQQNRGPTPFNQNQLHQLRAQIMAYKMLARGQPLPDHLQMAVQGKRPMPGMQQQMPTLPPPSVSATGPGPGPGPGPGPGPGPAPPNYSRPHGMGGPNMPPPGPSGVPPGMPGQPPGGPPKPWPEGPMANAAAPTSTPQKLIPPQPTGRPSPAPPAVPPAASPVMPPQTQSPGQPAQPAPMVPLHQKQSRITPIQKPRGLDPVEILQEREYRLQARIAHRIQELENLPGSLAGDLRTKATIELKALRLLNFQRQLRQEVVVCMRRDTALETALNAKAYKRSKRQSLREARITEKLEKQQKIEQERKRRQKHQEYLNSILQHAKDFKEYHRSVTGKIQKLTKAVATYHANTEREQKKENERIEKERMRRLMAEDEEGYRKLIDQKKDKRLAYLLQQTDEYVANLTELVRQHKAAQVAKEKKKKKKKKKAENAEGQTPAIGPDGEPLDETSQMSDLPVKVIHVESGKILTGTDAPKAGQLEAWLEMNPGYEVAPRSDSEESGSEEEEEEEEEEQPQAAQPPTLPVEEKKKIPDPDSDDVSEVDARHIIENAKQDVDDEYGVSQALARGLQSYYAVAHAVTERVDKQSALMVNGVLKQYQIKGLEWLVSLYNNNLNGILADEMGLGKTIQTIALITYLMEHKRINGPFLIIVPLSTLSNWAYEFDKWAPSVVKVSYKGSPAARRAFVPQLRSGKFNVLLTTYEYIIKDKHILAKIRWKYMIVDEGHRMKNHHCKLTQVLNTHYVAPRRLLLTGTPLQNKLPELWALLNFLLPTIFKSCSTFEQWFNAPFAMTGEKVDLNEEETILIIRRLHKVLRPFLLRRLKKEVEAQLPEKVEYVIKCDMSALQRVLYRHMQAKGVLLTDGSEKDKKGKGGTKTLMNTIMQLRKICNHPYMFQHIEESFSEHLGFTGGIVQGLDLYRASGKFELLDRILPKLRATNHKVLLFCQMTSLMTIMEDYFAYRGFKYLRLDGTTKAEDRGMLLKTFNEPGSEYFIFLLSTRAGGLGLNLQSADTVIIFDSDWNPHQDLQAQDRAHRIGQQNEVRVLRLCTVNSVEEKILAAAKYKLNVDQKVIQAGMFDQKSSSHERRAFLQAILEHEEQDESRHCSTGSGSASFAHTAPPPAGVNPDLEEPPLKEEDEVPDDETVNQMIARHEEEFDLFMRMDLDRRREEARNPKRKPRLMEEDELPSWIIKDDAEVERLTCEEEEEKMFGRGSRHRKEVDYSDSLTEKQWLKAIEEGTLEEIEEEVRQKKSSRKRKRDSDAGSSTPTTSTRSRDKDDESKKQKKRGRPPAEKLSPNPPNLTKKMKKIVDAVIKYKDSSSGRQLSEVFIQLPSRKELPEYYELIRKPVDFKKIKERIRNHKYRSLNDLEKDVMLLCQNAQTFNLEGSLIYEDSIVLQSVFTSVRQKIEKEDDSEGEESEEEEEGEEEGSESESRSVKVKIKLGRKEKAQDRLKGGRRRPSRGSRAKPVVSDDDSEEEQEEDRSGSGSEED
Assay: HiBiT assay for protein degradation, Hela SMARCA4-HiBiT cells (A series)
Type: cell-based
Parameters: fuse HiBiT to the carboxy terminus of SMARCA2 (Promega CS302365) or SMARCA4 (Promega CS3023225); host or cells: HeLa (CRISPR/Cas9 HiBiT knock-in)
Settings: Hela SMARCA4-HiBiT cells, 24 hours treatment; read-out: SMARC A4 Hela HiBit Dmax
Description: Hela cells were genetically modified via CRISPR/Cas9 to fuse HiBiT to the carboxy terminus of SMARCA2 (Promega CS302365) or SMARCA4 (Promega CS3023225). Cells were cultured in DMEM containing 10% FBS and 1% (Vol:Vol) penicillin-streptomycin. […] At the end of experiment, levels of SMARCA2 or SMARCA4 expression were assessed with Nano-Glo® HiBiT Lytic Detection Assay (Promega N3050). IC50 was obtained using the GraphPad Prism data analysis software.
A collection of molecules and their measured Dmax
Property: Dmax

| Molecule | Result |
| --- | --- |
| CC(C)(C)[C@@H](C(=O)N1C[C@H](O)C[C@H]1C(=O)N[C@@H](CN1CCOCC1)c1ccc(-c2scnc2C(F)(F)F)cc1)n1cc([C@H]2CC[C@H](CN3CCC(c4ccc5c(c4)-n4c(nc(=O)c6c(Cl)cccc64)C54CCCCC4)CC3)CC2)nn1 [Compound A167] | < 50% |
| Cc1nc(C)c(-c2ccc([C@H](CN3CCOCC3)NC(=O)[C@@H]3C[C@@H](O)CN3C(=O)[C@@H](n3cc([C@H]4CC[C@H](CN5CCC(c6ccc7c(c6)-n6c(nc(=O)c8c(Cl)cccc86)C76CCCCC6)CC5)CC4)nn3)C(C)(C)C)cc2)o1 [Compound A166] | < 50% |
| Cc1ncsc1-c1ccc([C@H](C)NC(=O)[C@@H]2C[C@@H](O)CN2C(=O)[C@@H](n2cc([C@H]3CC[C@H](CN4CCC(c5ccc6c(c5)-n5c(nc(=O)c7c(Cl)cccc75)C6(C)C)CC4)CC3)nn2)C(C)(C)C)cc1 [Compound A89] | 50 to 69% |
| Cc1ncsc1-c1ccc([C@H](C)NC(=O)[C@@H]2C[C@@H](O)CN2C(=O)[C@H](C2CCCCC2)n2cc([C@H]3CC[C@H](CN4CCC(c5ccc6c(c5)-n5c(nc(=O)c7c(Br)cccc75)C65CCCCC5)CC4)CC3)nn2)cc1 [Compound A119] | 70 to 90% |
| Cc1ncoc1-c1ccc([C@H](CN2CCOCC2)NC(=O)[C@@H]2C[C@@H](O)CN2C(=O)[C@@H](n2cc([C@H]3CC[C@H](CN4CCC(c5ccc6c(c5)-n5c(nc(=O)c7c(Cl)cccc75)C65CCCCC5)CC4)CC3)nn2)C(C)(C)C)cc1 [Compound A165] | < 50% |
| Cc1ncsc1-c1ccc([C@H](CC(=O)N2CCC(CN3CCC(c4ccc5c(c4)-n4c(nc(=O)c6c(Br)cccc64)C54CCCCC4)CC3)CC2)NC(=O)[C@@H]2C[C@@H](O)CN2C(=O)[C@@H](n2cc(C3CC3)nn2)C(C)(C)C)cc1 [Compound A141] | > 90% |
| CC(=O)N1CCC([C@@H](C(=O)N2C[C@H](O)C[C@H]2C(=O)N[C@@H](C)c2ccc(-c3scnc3C)cc2)n2cc([C@H]3CC[C@H](CN4CCC(c5ccc6c(c5)-n5c(nc(=O)c7c(Cl)cccc75)C65CCCCC5)CC4)CC3)nn2)CC1 [Compound A111] | 70 to 90% |
| COCCOCCOCCOCCOC[C@H](NC(=O)[C@@H]1C[C@@H](O)CN1C(=O)[C@@H](n1cc([C@H]2CC[C@H](CN3CCC(c4ccc5c(c4)-n4c(nc(=O)c6c(Cl)cccc64)C5(C)C)CC3)CC2)nn1)C(C)(C)C)c1ccc(-c2scnc2C)cc1 [Compound A151] | < 50% |
| Cc1nc(C)c(-c2ccc([C@H](CN3CCOCC3)NC(=O)[C@@H]3C[C@@H](O)CN3C(=O)[C@@H](n3cc([C@H]4CC[C@H](CN5CCC(c6ccc7c(c6)-n6c(nc(=O)c8c(Cl)cccc86)C76CCCCC6)CC5)CC4)nn3)C(C)(C)C)cc2)s1 [Compound A161] | 50 to 69% |
| Cc1ncsc1-c1ccc([C@H](C)NC(=O)[C@@H]2C[C@@H](O)CN2C(=O)[C@H](C2CCCCC2)n2cc([C@H]3CC[C@H](CN4CCC(c5ccc6c(c5)-n5c(nc(=O)c7c(Cl)cccc75)C6(C)C)CC4)CC3)nn2)cc1 [Compound A124] | < 50% |
| COC(=O)COC[C@H](NC(=O)[C@@H]1C[C@@H](O)CN1C(=O)[C@@H](n1cc([C@H]2CC[C@H](CN3CCC(c4ccc5c(c4)-n4c(nc(=O)c6c(Cl)cccc64)C54CCCCC4)CC3)CC2)nn1)C(C)(C)C)c1ccc(-c2scnc2C)cc1 [Compound A152] | 50 to 69% |
| Cc1ncsc1-c1ccc([C@H](CN2CC3(COC3)C2)NC(=O)[C@@H]2C[C@@H](O)CN2C(=O)[C@@H](n2cc([C@H]3CC[C@H](CN4CCC(c5ccc6c(c5)-n5c(nc(=O)c7c(Cl)cccc75)C65CCCCC5)CC4)CC3)nn2)C(C)(C)C)cc1 [Compound A96] | 50 to 69% |
| Cc1ncsc1-c1ccc([C@H](CN2CC(C)(F)C2)NC(=O)[C@@H]2C[C@@H](O)CN2C(=O)[C@@H](n2cc([C@H]3CC[C@H](CN4CCC(c5ccc6c(c5)-n5c(nc(=O)c7c(Cl)cccc75)C6(C)C)CC4)CC3)nn2)C(C)(C)C)cc1 [Compound A93] | < 50% |
| Cc1ncsc1-c1ccc([C@H](CN2CCOCC2)NC(=O)[C@@H]2C[C@@H](O)CN2C(=O)[C@H](C2CCOCC2)n2cc([C@H]3CC[C@H](CN4CCC(c5ccc6c(c5)-n5c(nc(=O)c7c(Cl)cccc75)C65CCCCC5)CC4)CC3)nn2)cc1 [Compound A100] | 50 to 69% |
| Cc1ncsc1-c1ccc([C@H](CNC(=O)[C@H]2CC[C@H](CN3CCC(c4ccc5c(c4)-n4c(nc(=O)c6c(Br)cccc64)C54CCCCC4)CC3)CC2)NC(=O)[C@@H]2C[C@@H](O)CN2C(=O)[C@@H](n2cc(C3CC3)nn2)C(C)(C)C)cc1 [Compound A116] | < 50% |

----------
Molecular target: UniProt P51532
Test: HiBiT assay for protein degradation, Hela SMARCA4-HiBiT cells (A series)
Format: cell-based
Set-up: fuse HiBiT to the carboxy terminus of SMARCA2 (Promega CS302365) or SMARCA4 (Promega CS3023225); host or cells: HeLa (CRISPR/Cas9 HiBiT knock-in)
Conditions: Hela SMARCA4-HiBiT cells, 24 hours treatment; read-out: SMARC A4 Hela HiBit Dmax(%)
Property: Dmax

| Molecule | Tested on | Result |
| --- | --- | --- |
| Cc1ncsc1-c1ccc([C@H](CN2CCOCC2)NC(=O)[C@@H]2C[C@@H](O)CN2C(=O)[C@@H](n2cc([C@H]3CC[C@H](CN4CCC(c5ncc6c(n5)-n5c(nc(=O)c7c(Br)cccc75)C65CCCCC5)CC4)CC3)nn2)C(C)(C)C)cc1 [Compound A32] | UniProt P51532 | 70 to 90% |
| Cc1ncsc1-c1ccc([C@H](CN2CC(C)(F)C2)NC(=O)[C@@H]2C[C@@H](O)CN2C(=O)[C@@H](n2cc([C@H]3CC[C@H](CN4CCC(c5ccc6c(c5)-n5c(nc(=O)c7c(Cl)cccc75)C65CCCCC5)CC4)CC3)nn2)C(C)(C)C)cc1 [Compound A74] | UniProt P51532 | 50 to 69% |
| Cc1ncsc1-c1ccc([C@H](CCCCCN2CCC(c3ccc4c(c3)C3(CCCCC3)c3nc(=O)c5c(Br)cccc5n3-4)CC2)NC(=O)[C@H]2C[C@H](O)CN2C(=O)[C@@H](NC(=O)C2(CN3CCOCC3)CC2)C(C)(C)C)cc1 [Compound A38] | UniProt P51532 | 70 to 90% |
| Cc1ncsc1-c1ccc([C@H](CN2CCC(F)(F)CC2)NC(=O)[C@@H]2C[C@@H](O)CN2C(=O)[C@@H](n2cc([C@H]3CC[C@H](CN4CCC(c5ccc6c(c5)-n5c(nc(=O)c7c(Cl)cccc75)C65CCCCC5)CC4)CC3)nn2)C(C)(C)C)cc1 [Compound A75] | UniProt P51532 | < 50% |
| Cc1ncsc1-c1ccc([C@H](CN(C)C)NC(=O)[C@@H]2C[C@@H](O)CN2C(=O)[C@@H](NC(=O)[C@H]2CC[C@H](CN3CCC(c4ccc5c(c4)C4(CCCCC4)c4nc(=O)c6c(Br)cccc6n4-5)CC3)CC2)C(C)(C)C)cc1 [Compound A15] | UniProt P51532 | < 50% |
| Cc1ncsc1-c1ccc([C@H](C)NC(=O)[C@@H]2C[C@@H](O)CN2C(=O)[C@@H](n2cc(CCCCN3CCC(c4ccc5c(c4)C4(CCCCC4)c4nc(=O)c6c(Br)cccc6n4-5)CC3)nn2)C(C)(C)C)cc1 [Compound A56] | UniProt P51532 | > 90% |
| Cc1ncsc1-c1ccc([C@H](C)NC(=O)[C@@H]2C[C@@H](O)CN2C(=O)[C@@H](n2cc(CCN3CCC(c4ccc5c(c4)C4(CCCCC4)c4nc(=O)c6c(Br)cccc6n4-5)CC3)nn2)C(C)(C)C)cc1 [Compound A54] | UniProt P51532 | > 90% |
| Cc1ncsc1-c1ccc([C@H](C)NC(=O)[C@@H]2C[C@@H](O)CN2C(=O)[C@@H](NC(=O)C2CC(CN3CCC(c4ccc5c(c4)C4(CCCCC4)c4nc(=O)c6c(Br)cccc6n4-5)CC3)C2)C(C)(C)C)cc1 (some centres unmarked) [Compound A20] | UniProt P51532 | < 50% |
